Some molecules, each annotated with its measured pKi.
- Tgt: human ERβ LBD (Homo sapiens)
- Sequence (Q92731 264-498 limits assumed): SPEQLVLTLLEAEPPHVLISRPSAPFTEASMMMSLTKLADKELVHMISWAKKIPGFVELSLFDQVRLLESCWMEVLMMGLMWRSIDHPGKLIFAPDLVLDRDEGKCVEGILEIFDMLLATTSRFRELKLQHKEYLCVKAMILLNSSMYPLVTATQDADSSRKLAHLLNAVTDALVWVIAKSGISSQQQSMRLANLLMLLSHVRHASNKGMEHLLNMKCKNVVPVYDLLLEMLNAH
- Experiment summary: Competitive fluorescence polarization binding assay, ERβ
- Cond: read-out: Ki ERβ
Field pKi (float): negative decimal logarithm of the concentration in molar.

[[record]]
molecule = "COc1ccc(N(CC(F)(F)F)S(=O)(=O)C2CC3OC2C(c2ccc(O)cc2)=C3c2ccc(NC(=O)C=C(C)C)cc2)cc1 (stereo not drawn) [Compound 29f]"
tgt = "human ERβ LBD (Homo sapiens)"
value_measured = 8.39

[[record]]
molecule = "C=CC(=O)Nc1ccc(C2=C(c3ccc(O)cc3)C3OC2CC3S(=O)(=O)N(CC(F)(F)F)c2ccc(O)cc2)cc1 (stereo not drawn) [Compound 29a]"
tgt = "human ERβ LBD (Homo sapiens)"
value_measured = 9.00


Look up pKi: CC(C)=CC(=O)Nc1ccc(C2=C(c3ccc(O)cc3)C3CC(S(=O)(=O)N(CC(F)(F)F)c4ccc(O)cc4)C2O3)cc1 (stereo not drawn) [29c′]
8.49
